test: Solubility (no method given)
Assay type: physicochemical
runConditions: aqueous 10% Polysorbate 80, aqueous with cosolvent or surfactant or cyclodextrin

| compound | solubility |
| --- | --- |
| CNC(=O)c1nn(C)c2c1C(C)(C)Cc1cnc(Nc3ccc(N4CCN(C)CC4)cc3)nc1-2 [compound 125] | ~800 µg/mL |

* * *

test: Solubility of compound 125 salts and free base (96-well plate, shaken at RT 30 minutes, filtered, HPLC)
Assay type: physicochemical
runConditions: 50% polyethylene glycol 400 in 5% glucose solution, aqueous with cosolvent or surfactant or cyclodextrin, thermodynamic from solid; read-out: solubility in 50% polyethylene glycol 400 in 5% glucose solution
valueKind: solubility at 30 min (µg/mL)

| inputSmiles | unitTag | readoutValue |
| --- | --- | --- |
| CNC(=O)c1nn(C)c2c1C(C)(C)Cc1cnc(Nc3ccc(N4CCN(C)CC4)cc3)nc1-2 | µg/mL | 7200 |

* * *

test: Solubility of compound 125 salts and free base (96-well plate, shaken at RT 30 minutes, filtered, HPLC)
Type: physicochemical
runConditions: saline or isotonic, thermodynamic from solid; 5% glucose solution, RT, 30 minutes; read-out: solubility in 5% glucose solution

| inputSmiles | solubility at 30 min |
| --- | --- |
| CNC(=O)c1nn(C)c2c1C(C)(C)Cc1cnc(Nc3ccc(N4CCN(C)CC4)cc3)nc1-2 | < 100 µg/mL |

* * *

test: Solubility (no method given)
Format: physicochemical
runConditions: water; read-out: aqueous solubility

| inputSmiles | solubility |
| --- | --- |
| CNC(=O)c1nn(C)c2c1C(C)(C)Cc1cnc(Nc3ccc(N4CCN(C)CC4)cc3)nc1-2 | < 100 µg/mL |
